# protocol-summary: Primary qHTS for inhibitors of nuclear receptor binding SET domain protein 2 (NSD2) in an isogenic RCH-ACV NSD2 p.E1099K mutant (9B) (AID 1645876); further: nearly all actives have a fitted effect of over 70% in size
# assay-setup: RCH-ACV (leukaemia line) NSD2 E1099K (9B) viability, CellTiter-Glo, 72 h; series mostly up to 44.9 µM
Records with an inconclusive call do not appear. Active and inactive are the calls of the source. The call rests on the fitted dose curve; in most records, active means well fitted inhibition curve with a large enough effect; inconclusive means small, poorly fitted or top-dose-only effect; inactive means flat fitted curve, though single readings scatter.
Select the correct class. Options are active, inactive and nothing else.

Challenge: Kindly provide the recorded test outcome for the following compound: CN(C)c1cc2c(Nc3ccc4c(cnn4Cc4ccccc4)c3)ncnc2cn1
Response given: active

More entries:
Challenge: Recorded test call requested for CC(C)=CCC/C(C)=C/CC/C(C)=C/CCC(=O)OC/C=C(\C)CCC=C(C)C
Response given: inactive

Challenge: Assay result, entry COCCc1ccc(OCC2CO2)cc1 (stereo not drawn) — outcome?
Response given: inactive

----------
# Test system: HEK293
# protocol-summary: Cytotoxic Profiling of Annotated Libraries Using Quantitative High-Throughput Screening (AID 1296008); further: nearly all actives have a fitted effect of over 60% in size
# assay-setup: Five cell lines viability, CellTiter-Glo ATP luminescence, 48-72 h
Results filed as inconclusive are left out. Activity calls are given as the source filed them. The call rests on the fitted dose curve; in most records, active means well fitted inhibition curve with a large enough effect; inconclusive means small, poorly fitted or top-dose-only effect; inactive means flat fitted curve, though single readings scatter.
Can you answer with just one of these options? active, inactive

Examples with answers:
Challenge: I'd appreciate the recorded outcome for O=C(O)CCCC[P+](c1ccccc1)(c1ccccc1)c1ccccc1 from this test.
Response given: inactive

Challenge: Outcome logged for COc1cc(OC)nc(O[C@H](C(=O)O)C(OC)(c2ccccc2)c2ccccc2)n1 in this assay:
Response given: inactive

Challenge: Hi team, can someone confirm the assay call for O=[N+]([O-])c1ccc(O)c2ncccc12 ?
Response given: active

Challenge: Please let me know the test result on file for CNC(=O)c1cnn(-c2nc(N)c3ncn([C@@H]4O[C@H](CO)[C@@H](O)[C@H]4O)c3n2)c1 .
Response given: inactive

Challenge: GET /call?item= OCc1c[nH]c2ccccc12 returns the recorded outcome of this test.
Response given: active

Challenge: Hi team, can someone confirm the assay call for CC[C@@H]([C@H](C)O)n1ncn(-c2ccc(N3CCN(c4ccc(OC[C@@H]5CO[C@@](Cn6cncn6)(c6ccc(F)cc6F)C5)cc4)CC3)cc2)c1=O ?
Response given: active

Challenge: Assay outcome for Cc1oc(-c2ccccc2)nc1CCC(=O)c1ccc(CC2SC(=O)NC2=O)cc1 (configuration not stated) : what was it?
Response given: inactive

Challenge: # fetch the recorded call for CC(=O)OCC[N+](C)(C)C here
Response given: inactive

---
Challenge: # outcome recorded in this test, key = O=C1CC(c2ccc(Cl)cc2)CC(=O)N1
Response given: inactive

Challenge: Fill in: this test's call for CC(=O)CC/C=C(\C)CC/C=C(\C)CC/C=C(\C)CCC=C(C)C is ___
Response given: inactive

Challenge: Could you check what this test reported for Cc1ccc(C(=O)C(=O)O)cc1C ?
Response given: inactive

Challenge: Given C[N+]1(CC2COC(c3ccccc3)(c3ccccc3)O2)CCCCC1 (configuration not stated) , state the outcome it received in this test.
Response given: active

Challenge: Which outcome did this test record for the compound COc1ccc(/C(C)=C/C(=O)O)c(OC)c1 ?
Response given: inactive

----------
# Test system: Tov-21-G
# protocol-summary: Primary qHTS to identify gynecologic anti-cancer compounds using libraries of approved drugs and bioactive compounds (AID 1345084); further: nearly all actives have a fitted effect of over 55% in size
# assay-setup: Gynecologic cancer cell panel viability, ATPlite luminescence, 48 h; series mostly up to 57.5 µM
Inconclusive results are not listed. Calls of active or inactive are those of the source. Calls follow the shape of the dose curve; as a rule, active = well fitted cell-killing curve with a large enough effect; inconclusive = small, poorly fitted or top-dose-only effect, or effect the other way; inactive = flat fitted curve, though single readings scatter.
Lab note: assign the record to one of 1 = active, -1 = inactive

Some entries whose results are on file:
Challenge: How did this test come out for O=C1CC2(CCCC2)CC(=O)N1CCNCC1COc2ccccc2O1 (centres undefined) ?
Response given: -1

Challenge: Could you check what this test reported for OC1(c2ccc(Cl)cc2)CCNCC1 ?
Response given: -1

Challenge: Lab log entry: CN1C(CSCC(F)(F)F)Nc2cc(Cl)c(S(N)(=O)=O)cc2S1(=O)=O (centres undefined) — outcome as called in the assay?
Response given: -1

Challenge: Test call, this compound: CCCCCCCCCCCCCC[N+](C)(C)C
Response given: 1

Challenge: Tell me the assay call for O=C1CC[C@H](C(=O)N2CCCCC2)N1 please.
Response given: -1

Next:
Challenge: Given Cc1[nH]cnc1-c1ccc(Cl)cc1 , state the outcome it received in this test.
Response given: -1

Challenge: Dear colleague, could you share the recorded outcome for CNC(=O)c1c(I)c(NC(C)=O)c(I)c(C(=O)O)c1I when you have a moment?
Response given: -1

Data origin: PubChem BioAssay (NCATS)
